Target: Prostaglandin G/H synthase 1 (Ovis aries)
Assay: Inhibition of ovine COX1 assessed as remaining activity at 10 uM relative to control
Is Activity at least 50%? Then met. If not, not met.

Some entries whose results are on file:
# compound, assigned_class
data = [
    ("CCCCCCC(Sc1nc(Cl)cc(Nc2ccc(-c3ccccc3)cc2)n1)C(=O)O (stereo not given)", "met"),
    ("COc1ccc2c(c1)c(CC(=O)O)c(C)n2C(=O)c1ccc(Cl)cc1", "not met"),
    ("CCCCCCC(Sc1nc(Cl)cc(Nc2cccc(C)c2C)n1)C(=O)O (stereo not given)", "met"),
    ("CCCCCCC(Sc1nc(Cl)cc(NCc2ccc(-c3ccccc3)cc2)n1)C(=O)O (stereo not given)", "met"),
]

Shift focus to the following entry.
# bool: Activity of CCCCCCC(Sc1nc(Cl)cc(Nc2cc(OCC(F)(F)F)cc(OCC(F)(F)F)c2)n1)C(=O)O (stereo not given) >= 50% not met
